target-under-test: Cdk2(N272C) (C177A) (Homo sapiens, UniProt P24941, C177A/N272C)
Construct: poly-histidine; made in house; host or cells: E. coli
protocol-text: Kinetic thiol consumption assay with Cdk2 mutant N272C
Type: binding
Design: key: rate constant with Cdk2 ÷ rate constant with model thiol (fold)
condition-set: Cdk2 N272, additional mutation C177A
recorded-endpoint: Rate enhancement, Cdk2 N272
Give bare numbers.

The following compounds have reported results that may help.
C=CC(=O)Nc1nc2ccccc2n1CCc1ccccn1 [CA-144] :: 2.14
C=CC(=O)Nc1cccc(-c2nnnn2C2CC2)c1 [CA-057] :: 2.885
C=CC(=O)Nc1ccc(C(=O)NC2CCCC2)cc1 [EL-1114] :: 0.04599

Okay, now this compound:
# input compound: C=CC(=O)N1CCC(c2nc3ccccc3[nH]2)CC1 [EL-1152] ; wanted: its Rate enhancement, Cdk2 N272
0.326
